- testedOn: human orexin-1 receptor (Homo sapiens, UniProt O43613)
- Construct: expressed in transfected cells; host or cells: CHO (Chinese hamster ovary) cells, kept under G418 selection
- experimentalProtocol: Intracellular calcium measurement (FLIPR Tetra), orexin receptor antagonistic activity, OX1
- Type: cell-based
- details: CHO cells expressing human orexin-1 receptor, 3 nM orexin-A, conditions B, normalized (*) using IC50 of on-plate reference compound
measuredParameter: IC50 (nM)

INSERT INTO measurements (chemsmiles, measuredparameter, experimentalvalue) VALUES
  ('COC(=O)CN(CCc1c[nH]c2ccc(F)cc12)C(=O)c1nccnc1-c1ccccc1', 'IC50', 2730);

A. Cc1cccc(-c2ncncc2C(=O)N(CCc2c[nH]c3ccccc23)CC(F)(F)F)c1
B. Cc1nc(C(=O)N(CCc2c[nH]c3ccc(F)cc23)CC2CC2)c(-c2ccc(C)c(F)c2F)s1
C. COc1ccc2nc(CCN(CC3CC3)C(=O)c3ncccc3-c3ccc(OC)nc3)[nH]c2c1
query: Order the records so the highest IC50 appears first and the lowest last. Output spec: a listing of the labels in the requested order.
result: C, A, B
(C: 1860 nM, A: 1160 nM, B: 407 nM)

----------
- testedOn: human orexin-1 receptor (Homo sapiens, UniProt O43613)
- Construct: expressed in transfected cells; host or cells: CHO (Chinese hamster ovary) cells, kept under G418 selection
- Sequence (O43613 1-425): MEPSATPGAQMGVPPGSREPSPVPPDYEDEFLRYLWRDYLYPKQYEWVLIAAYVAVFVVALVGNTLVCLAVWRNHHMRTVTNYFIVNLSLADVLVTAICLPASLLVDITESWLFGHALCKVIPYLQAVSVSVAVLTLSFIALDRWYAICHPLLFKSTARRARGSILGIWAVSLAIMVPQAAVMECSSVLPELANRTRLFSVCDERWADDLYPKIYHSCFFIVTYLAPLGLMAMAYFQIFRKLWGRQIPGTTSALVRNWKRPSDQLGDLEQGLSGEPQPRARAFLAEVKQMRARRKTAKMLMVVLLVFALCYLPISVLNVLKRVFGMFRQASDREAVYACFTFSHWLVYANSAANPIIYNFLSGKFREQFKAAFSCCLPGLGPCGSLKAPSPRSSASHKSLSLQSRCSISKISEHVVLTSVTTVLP
- experimentalProtocol: Intracellular calcium measurement (FLIPR Tetra), orexin receptor antagonistic activity, OX1
- Assay type: cell-based
- details: CHO cells expressing human orexin-1 receptor, 3 nM orexin-A, conditions B, normalized (*) using IC50 of on-plate reference compound
measuredParameter: IC50 (nM)

I. COc1cccc2c(CCN(CC3CC3)C(=O)c3nccnc3-c3cccc(C(F)(F)F)c3)c[nH]c12
II. Cc1cc(F)cc(-c2nccnc2C(=O)N(CCc2c[nH]c3ccccc23)CC(F)(F)F)c1
III. O=C(c1ncccc1-c1cnc2ccccc2c1)N(CCc1c[nH]c2ccc(F)cc12)CC1CC1
query: Ranking field: IC50; order: falling. Output spec: a listing of the labels in the requested order.
result: I, II, III

----------
- testedOn: human orexin-2 receptor (Homo sapiens, UniProt O43614)
- Construct: expressed in transfected cells; host or cells: CHO (Chinese hamster ovary) cells, kept under G418 selection
- Sequence (O43614 whole entry): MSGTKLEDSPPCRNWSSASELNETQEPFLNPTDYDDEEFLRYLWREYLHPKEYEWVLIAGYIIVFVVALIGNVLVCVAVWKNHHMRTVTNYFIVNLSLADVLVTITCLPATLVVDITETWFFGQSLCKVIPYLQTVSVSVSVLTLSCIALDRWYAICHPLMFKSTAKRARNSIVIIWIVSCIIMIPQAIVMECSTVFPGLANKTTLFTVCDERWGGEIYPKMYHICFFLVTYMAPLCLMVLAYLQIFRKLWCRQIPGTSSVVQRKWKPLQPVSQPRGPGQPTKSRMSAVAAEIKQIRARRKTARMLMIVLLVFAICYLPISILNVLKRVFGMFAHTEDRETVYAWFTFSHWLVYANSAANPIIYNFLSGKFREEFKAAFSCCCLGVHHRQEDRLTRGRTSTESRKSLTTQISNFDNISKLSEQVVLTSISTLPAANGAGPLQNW
- experimentalProtocol: Intracellular calcium measurement (FLIPR Tetra), orexin receptor antagonistic activity, OX2
- Type: cell-based
- details: CHO cells expressing human orexin-2 receptor, 3 nM orexin-A, conditions B, normalized (*) using IC50 of on-plate reference compound
pIC50: −log10 of the molar value.
measuredParameter: pIC50

INSERT INTO results (compound, experimentalvalue) VALUES
  ('Cc1nc(C(=O)N(CCc2c[nH]c3ccc(F)cc23)CC2CC2)c(-c2ccc(F)c(CO)c2)s1 [Example 418]', 7.89),
  ('COc1ccc(-c2nccnc2C(=O)N(CCc2c[nH]c3c(C)cccc23)CC2CC2)cn1 [Example 437]', 8.52),
  ('Cc1cccc(-c2sc(CN)nc2C(=O)N(CCc2c[nH]c3ccc(F)cc23)CC2CC2)c1 [Example 433]', 6.62);

a. COc1ccc(-c2sc(C)nc2C(=O)N(CCO)CCc2c[nH]c3ccc(F)cc23)cn1 [Example 308]
b. CN(C)c1cccc(-c2ocnc2C(=O)N(CCc2c[nH]c3ccc(F)cc23)CC2CC2)c1 [Example 261]
query: From the items above, decide which of a and b has the lower pIC50 reading. Respond with the label that goes with your answer.
result: b
(b: 6.73, a: 7.60)

P. COC(=O)CN(CCc1c[nH]c2ccc(F)cc12)C(=O)c1ncccc1-c1ccc(OC)nc1 [Example 315]
Q. COc1ccc(-c2cccnc2C(=O)N(CCc2cn(C)c3ccccc23)CC2CC2)cn1 [Example 352]
R. Cc1nc(C(=O)N(CCc2c[nH]c3ccc(F)cc23)CC2CC2)c(-c2ccc3cc[nH]c3c2)s1 [Example 430]
query: Ascending by pIC50, please: list the compounds accordingly. Output spec: a listing of the labels in the requested order.
result: P, Q, R

----------
- testedOn: human orexin-2 receptor (Homo sapiens, UniProt O43614)
- Construct: expressed in transfected cells; host or cells: CHO (Chinese hamster ovary) cells, kept under G418 selection
- experimentalProtocol: Intracellular calcium measurement (FLIPR Tetra), orexin receptor antagonistic activity, OX2
- Assay type: cell-based
- details: CHO cells expressing human orexin-2 receptor, 3 nM orexin-A, conditions B, normalized (*) using IC50 of on-plate reference compound
- Procedure: The orexin receptor antagonistic activity of the compounds of formula (I) is determined in accordance with one of the following experimental methods. […] Within the Fluorescent Imaging Plate Reader (FLIPR Tetra, Molecular Devices), antagonists are added to the plate in a volume of 10 μl/well, incubated for 10 min and finally 10 μl/well of agonist is added. […] The calculated IC50 values of the compounds may fluctuate depending on the daily cellular assay performance. […]
pIC50: −log10 of the molar value.
measuredParameter: pIC50

INSERT INTO results (chemsmiles, measuredparameter, experimentalvalue) VALUES
  ('CCCN(CCc1c[nH]c2ccc(F)cc12)C(=O)c1nccnc1-c1ccc(C)c(C)c1', 'pIC50', 8.00);

I. COc1ccc(-c2cccnc2C(=O)N(CCc2c[nH]c3ccc(F)cc23)CC(N)=O)cn1
II. COc1ccc(CCN(CC2CC2)C(=O)c2nc(N)sc2-c2cccc(C)c2)cc1OC(F)F
III. Cc1ccc(-c2nccnc2C(=O)N(CCc2c[nH]c3c(C)cccc23)CC2CC2)cc1C
IV. Cc1ccc(-c2scnc2C(=O)N(CCc2c[nH]c3ccc(F)cc23)CC2CC2)cc1C
query: Order the records so the highest pIC50 appears first and the lowest last. Output spec: a listing of the labels in the requested order.
result: III, II, IV, I

I. Cc1ccc(-c2sc(C3CC3)nc2C(=O)N(CCc2c[nH]c3ccc(F)cc23)CC2CC2)cc1F
II. COc1ccc2[nH]cc(CCN(CC3CC3)C(=O)c3nccnc3-c3ccccc3)c2c1
query: Which entry has a larger number for pIC50, I or II ? Respond with the label that goes with your answer.
result: II
(II: 7.62, I: 6.22)

1. COc1ccc(-c2sc(C)nc2C(=O)N(CCc2c[nH]c3cc(F)ccc23)CC2CC2)cn1
2. Cc1cccc(-c2oc(C3CC3)nc2C(=O)N(CCc2c[nH]c3ccccc23)CC2CC2)c1
query: From the items above, decide which of 1 and 2 has the lower pIC50 reading. Respond with the label that goes with your answer.
result: 2
(2: 7.46, 1: 7.77)

P. CCCN(CCc1c[nH]c2ccc(F)cc12)C(=O)c1ncccc1-c1ccc(OC)nc1
Q. COc1ccc(-c2sc(C)nc2C(=O)N(CCc2c[nH]c3ccc(F)cc23)CC2CC2)cc1C
R. COc1ccc(-c2cccnc2C(=O)N(CCc2c[nH]c3ccc(C)cc23)CC2CC2)cn1
query: Order the records so the highest pIC50 appears first and the lowest last. Output spec: a listing of the labels in the requested order.
result: P, R, Q

a. O=C(c1cncnc1-c1ccccc1)N(CCc1c[nH]c2ccccc12)CC1CC1
b. O=C(c1nccnc1-c1ccccc1)N(CCO)CCc1c[nH]c2ccc(F)cc12
query: Which entry has a larger number for pIC50, a or b ? Respond with the label that goes with your answer.
result: a
(a: 8.00, b: 6.20)

A. COc1ccc(-c2sc(C)nc2C(=O)N(CCc2c[nH]c3ccc(F)cc23)CC2CC2)cn1
B. CCN(C)c1nc(C(=O)N(CCc2c[nH]c3ccccc23)CC2CC2)c(-c2ccccc2F)s1
query: Which entry has a larger number for pIC50, A or B ? Respond with the label that goes with your answer.
result: A

----------
- testedOn: human orexin-1 receptor (Homo sapiens, UniProt O43613)
- Construct: expressed in transfected cells; host or cells: CHO (Chinese hamster ovary) cells, kept under G418 selection
- experimentalProtocol: Intracellular calcium measurement (FLIPR Tetra), orexin receptor antagonistic activity, OX1
- Assay type: cell-based
- details: CHO cells expressing human orexin-1 receptor, 3 nM orexin-A, conditions B, normalized (*) using IC50 of on-plate reference compound
pIC50: −log10 of the molar value.
measuredParameter: pIC50

// below: answered compounds
INSERT INTO assay_data (compound, measuredparameter, experimentalvalue) VALUES
  ('CCN(CCc1c[nH]c2ccccc12)C(=O)c1cncnc1-c1ccc(Cl)c(Cl)c1 [Example 544]', 'pIC50', 6.75),
  ('COc1ccc(-c2sc(C)nc2C(=O)N(CCc2cn(C)c3ccccc23)CC2CC2)cn1 [Example 341]', 'pIC50', 7.74),
  ('CCCN(CCc1c[nH]c2ccc(F)cc12)C(=O)c1nccnc1-c1ccccc1 [Example 283]', 'pIC50', 6.72);

a. Cc1nc(C(=O)N(CCc2c[nH]c3ccc(F)cc23)CC2CC2)c(-c2ccc(C#N)c(F)c2)s1 [Example 419]
b. Cc1ccc(-c2nccnc2C(=O)N(CCc2c[nH]c3c(C)cccc23)CC2CC2)cc1C [Example 337]
c. Cc1ccc(-c2scnc2C(=O)N(CCc2c[nH]c3ccc(F)cc23)CC2CC2)cc1C [Example 274]
d. COc1cccc(-c2ncncc2C(=O)N(CCc2c[nH]c3ccccc23)CC2CC2)c1 [Example 506]
query: Ascending by pIC50, please: list the compounds accordingly. Output spec: a listing of the labels in the requested order.
result: a, d, c, b
(a: 5.60, d: 6.59, c: 6.81, b: 7.80)
